experiment: in vitro; type: cell-based; details: hemolysis assay; read-out: Cytotoxicity Hemolysis EC50
READOUT: EC50

Which EC50 is reported for this molecule? NCCCn1c2ccc(C3=CCNCC3)cc2c2cc(C3=CCNCC3)ccc21
> 1000 µg/mL

###

experiment: Cytotoxicity against 3T3 cells; assay type: cell-based; conditions: mouse
pEC50: −log10 of the molar value.
READOUT: pEC50

Which pEC50 is reported for this molecule? N=C(N)NCCCn1c2ccc(C3=CCNCC3)cc2c2cc(C3=CCNCC3)ccc21
< 3.00

Which pEC50 is reported for this molecule? NCCCn1c2ccc(C3=CCNCC3)cc2c2cc(C3=CCNCC3)ccc21
< 3.00
